Readings of CYP3A4 activity inhibition ratio at 10 μM of test compound for the listed compounds
System Name: CYP3A4 (Homo sapiens)
Construct: purchased Cypex, Ltd; host or cells: E. coli membranes (Bactosomes)
Protocol Notes: Evaluation of CYP3A4 activity inhibitory action
Format: in vitro ADME
Stated Conditions: Human CYP3A4BR EasyCYP Bactosomes, 7-Benzyloxy-4-(trifluoromethyl)-coumarin
A bare number is not enough; add the unit after it.

These recorded examples may help you get a feel for the data.
> print(dat)
                                   compound  readout.value
1  CCn1c(C2CC2C(=O)N[C@H](C)c2ccc(OCC(F)(F)F)s2)nc2ccccc21 (single isomer, unassigned) [Example 54]          −1.1%
2  C[C@@H](NC(=O)[C@H]1C[C@@H]1c1nc2ccccc2[nH]1)c1nc2cc(F)ccc2o1 [Example 105]          21.2%
3  C[C@@H](NC(=O)C1CC1c1nc2cc(Cl)ccc2[nH]1)c1ccc(OCC(F)(F)F)s1 (some centres unmarked) [Example 53]           3.0%
4  C[C@@H](NC(=O)C1CC1c1nc(-c2ccccc2)c[nH]1)c1ccc(OCC(F)(F)F)s1 (single isomer, unassigned) [Example 31A]           7.0%
5  C[C@@H](NC(=O)C1CC1c1nc2ccccc2n1C)c1ccc(OCC(F)(F)F)s1 (single isomer, unassigned) [Example 4A]          39.6%
6  C[C@@H](NC(=O)[C@H]1C[C@@H]1c1nc2ccccc2[nH]1)c1cc2cc(F)ccc2o1 [Example 65]           4.2%
7  C[C@@H](NC(=O)C1CC1c1nc2ccccc2[nH]1)c1ccc(C(=O)N2CCCCC2)s1 (stereo in doubt) [Example 61]           4.5%
8  C[C@@H](NC(=O)[C@@H]1CCN(CC(=O)NC23CC4CC(CC(C4)C2)C3)C1)c1ccc(OCC(F)(F)F)s1 [Example 36]          81.0%

Returns the measured CYP3A4 activity inhibition ratio at 10 μM of test compound for the input compound. Input: C[C@H](c1cc2ccc(F)cc2o1)N(C)C(=O)[C@H]1C[C@@H]1c1nc2ccccc2[nH]1 [Example 129] 56.0%

###

This section presents compounds with their documented IC50 values.
System Name: human Cav3.2 channels (Homo sapiens)
Construct: expressed in transfected cells; host or cells: HEK293 cells (ATCC No. CRL-1573), plasmid pcDNA3.1(+)
Protocol Notes: Intracellular calcium concentration measurement (Fluo-4 AM) in stable cells expressing human Cav3.2 channels, buffer A / buffer B
Format: cell-based
Stated Conditions: Tables 2 to 6; buffer A, equilibrium potential of potassium −92 mV; read-out: Inhibitory action of buffer A (inactivated state)

The cases that follow already have their IC50 on record.
> print(dat)
                                   compound  quantity.kind   readout.value
1  CC(C)[C@@H](NC(=O)[C@H]1C[C@@H]1c1nc2ccccc2[nH]1)c1cc2ccc(F)cc2s1           IC50  100 to 1000 nM
2  C[C@@H](NC(=O)C1CC1c1ccc2ccccc2n1)c1ccc(Br)s1 (single isomer, unassigned)           IC50  100 to 1000 nM

I'd like to know its IC50. The compound in question is CC(C)[C@H](NC(=O)[C@H]1C[C@@H]1c1nc2ccccc2[nH]1)c1ccc(C(F)(F)F)s1 100 to 1000 nM

Using the record for CC(C(=O)Nc1ccccc1)N1CC[C@@H](C(=O)N[C@H](C)c2ccc(OCC(F)(F)F)s2)C1 (some centres unmarked) , report its IC50. 100 to 1000 nM

Entry under review: C[C@@H](NC(=O)C1CC1c1ccc2cnn(C)c2c1)c1cc2cc(F)ccc2o1 (single isomer, unassigned) [Example 103B] . Reported IC50? > 10000 nM

Given the compound C[C@@H](NC(=O)C1CC1c1nc2ccccc2[nH]1)c1ccc(C(=O)N2CCNCC2)s1 (stereo in doubt) , what is its reported IC50? 1000 to 10000 nM

Item under review: C[C@@H](NC(=O)[C@H]1C[C@@H]1c1nc2ccccc2[nH]1)c1cc2cc(Cl)ccc2o1 . Reported IC50? ≤ 100 nM

For the compound CCN(CC)C(=O)c1ccc([C@@H](C)NC(=O)C2CC2c2nc3ccccc3[nH]2)s1 (stereo in doubt) , what IC50 is on record? 100 to 1000 nM

Which IC50 is listed for C[C@@H](NC(=O)C1CC1c1nc2c(Cl)cccc2[nH]1)c1ccc(OCC(F)(F)F)s1 (single isomer, unassigned) [Example 122A] ? ≤ 100 nM

What does the record list as IC50 for C[C@@H](NC(=O)[C@@H]1CCN(CC(=O)Nc2cc(Cl)cc(Cl)c2)C1)c1ccc(OCC(F)(F)F)s1 ? ≤ 100 nM

Field request: IC50 | item: C[C@@H](NC(=O)[C@H]1C[C@@H]1c1nc2ccccc2[nH]1)c1ccc2c(c1)OCO2 100 to 1000 nM

GET /values?readout=IC50&item= C[C@@H](NC(=O)C1CC1c1ccccn1)c1ccc(OCC(F)(F)F)s1 (single isomer, unassigned) [Example 23A] 1000 to 10000 nM

Which measured IC50 value corresponds to C[C@@H](NC(=O)C1CC1c1nccn1Cc1ccccc1)c1ccc(OCC(F)(F)F)s1 (single isomer, unassigned) [Example 38B] ? > 10000 nM

Need IC50 of C[C@@H](NC(=O)[C@H]1C[C@@H]1c1nc2ccccc2[nH]1)c1ccc(C(=O)N(C)c2ccc(F)cc2)s1 , thanks. 100 to 1000 nM

###

System Name: CYP3A4 (Homo sapiens, UniProt P08684)
Construct: purchased Cypex, Ltd; host or cells: E. coli membranes (Bactosomes)
Sequence (P08684 whole entry): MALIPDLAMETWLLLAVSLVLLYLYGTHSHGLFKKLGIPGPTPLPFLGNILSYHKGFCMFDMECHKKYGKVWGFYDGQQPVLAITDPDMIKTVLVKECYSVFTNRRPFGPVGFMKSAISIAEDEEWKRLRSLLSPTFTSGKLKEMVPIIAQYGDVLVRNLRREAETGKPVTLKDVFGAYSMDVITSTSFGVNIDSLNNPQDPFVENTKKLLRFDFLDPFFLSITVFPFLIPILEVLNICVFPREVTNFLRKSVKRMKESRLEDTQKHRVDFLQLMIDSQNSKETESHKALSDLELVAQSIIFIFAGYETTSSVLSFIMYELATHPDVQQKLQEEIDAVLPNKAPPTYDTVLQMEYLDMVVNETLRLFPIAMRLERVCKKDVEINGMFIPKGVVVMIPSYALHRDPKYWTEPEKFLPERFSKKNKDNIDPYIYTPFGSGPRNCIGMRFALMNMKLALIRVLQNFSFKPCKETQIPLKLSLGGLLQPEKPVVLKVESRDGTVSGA
Protocol Notes: Evaluation of CYP3A4 activity inhibitory action
Assay type: in vitro ADME
Stated Conditions: Human CYP3A4BR EasyCYP Bactosomes, 7-Benzyloxy-4-(trifluoromethyl)-coumarin
Quantity Kind: CYP3A4 activity inhibition ratio at 10 μM of test compound (%)
The reply should contain only the number, in %.

Worked cases, CYP3A4 activity inhibition ratio at 10 μM of test compound given:
> print(dat)
                                   molecule  readout.value
1  C[C@@H](NC(=O)[C@H]1C[C@@H]1c1nc2ccccc2[nH]1)c1ccc(C(=O)N2CCCC2)s1          −12.8
2  C[C@@H](NC(=O)C1CC1c1c[nH]c2ccccc12)c1ccc(OCC(F)(F)F)s1 (single isomer, unassigned) [Example 21B]           23.3
3  C[C@@H](NC(=O)[C@@H]1CCN(CC(=O)Nc2cc(Cl)cc(Cl)c2)C1)c1ccc(OCC(F)(F)F)s1           77.9
4  CCn1c(C2CC2C(=O)N[C@H](C)c2cnc(OCC(F)(F)F)s2)nc2ccccc21 (some centres unmarked)           −1.4
5  C[C@@H](NC(=O)[C@H]1C[C@@H]1c1nc2ccccc2[nH]1)c1cc2cc(F)c(F)cc2o1           20.1

Entry C[C@@H](NC(=O)C1CC1c1nc2ccccc2[nH]1)c1ccc(C(=O)O)s1 (single isomer, unassigned) has what CYP3A4 activity inhibition ratio at 10 μM of test compound? 11.3

Tell me the measured CYP3A4 activity inhibition ratio at 10 μM of test compound of C[C@@H](NC(=O)C1CC1c1c[nH]c2ccccc12)c1ccc(OCC(F)(F)F)s1 (single isomer, unassigned) [Example 21A] , please. 16.9

Recorded CYP3A4 activity inhibition ratio at 10 μM of test compound of C[C@@H](NC(=O)[C@@H]1CCN(CC(=O)Nc2ccccc2)C1)c1ccc(OCC(F)(F)F)s1.Cl , please. 31.8

Find the recorded CYP3A4 activity inhibition ratio at 10 μM of test compound belonging to C[C@@H](NC(=O)[C@@H]1CCN(c2nc3ccccc3[nH]2)C1)c1ccc(OCC(F)(F)F)s1 and report it. 84.4

Bench note: what CYP3A4 activity inhibition ratio at 10 μM of test compound did C[C@@H](NC(=O)[C@H]1C[C@@H]1c1nc2cc(F)ccc2[nH]1)c1cc2cc(F)ccc2o1 show? 25.0

Data request, read-out CYP3A4 activity inhibition ratio at 10 μM of test compound, for CCN(CC)C(=O)c1ccc([C@@H](C)NC(=O)C2CC2c2nc3ccccc3[nH]2)s1 (stereo in doubt) 23.3

###

We begin with a simple list: items and their reported inhibition at 0.3 µM.
System Name: human Cav3.2 channels (Homo sapiens, UniProt O95180)
Construct: expressed in transfected cells; host or cells: HEK293 cells (ATCC No. CRL-1573), plasmid pcDNA3.1(+)
Sequence (O95180 whole entry): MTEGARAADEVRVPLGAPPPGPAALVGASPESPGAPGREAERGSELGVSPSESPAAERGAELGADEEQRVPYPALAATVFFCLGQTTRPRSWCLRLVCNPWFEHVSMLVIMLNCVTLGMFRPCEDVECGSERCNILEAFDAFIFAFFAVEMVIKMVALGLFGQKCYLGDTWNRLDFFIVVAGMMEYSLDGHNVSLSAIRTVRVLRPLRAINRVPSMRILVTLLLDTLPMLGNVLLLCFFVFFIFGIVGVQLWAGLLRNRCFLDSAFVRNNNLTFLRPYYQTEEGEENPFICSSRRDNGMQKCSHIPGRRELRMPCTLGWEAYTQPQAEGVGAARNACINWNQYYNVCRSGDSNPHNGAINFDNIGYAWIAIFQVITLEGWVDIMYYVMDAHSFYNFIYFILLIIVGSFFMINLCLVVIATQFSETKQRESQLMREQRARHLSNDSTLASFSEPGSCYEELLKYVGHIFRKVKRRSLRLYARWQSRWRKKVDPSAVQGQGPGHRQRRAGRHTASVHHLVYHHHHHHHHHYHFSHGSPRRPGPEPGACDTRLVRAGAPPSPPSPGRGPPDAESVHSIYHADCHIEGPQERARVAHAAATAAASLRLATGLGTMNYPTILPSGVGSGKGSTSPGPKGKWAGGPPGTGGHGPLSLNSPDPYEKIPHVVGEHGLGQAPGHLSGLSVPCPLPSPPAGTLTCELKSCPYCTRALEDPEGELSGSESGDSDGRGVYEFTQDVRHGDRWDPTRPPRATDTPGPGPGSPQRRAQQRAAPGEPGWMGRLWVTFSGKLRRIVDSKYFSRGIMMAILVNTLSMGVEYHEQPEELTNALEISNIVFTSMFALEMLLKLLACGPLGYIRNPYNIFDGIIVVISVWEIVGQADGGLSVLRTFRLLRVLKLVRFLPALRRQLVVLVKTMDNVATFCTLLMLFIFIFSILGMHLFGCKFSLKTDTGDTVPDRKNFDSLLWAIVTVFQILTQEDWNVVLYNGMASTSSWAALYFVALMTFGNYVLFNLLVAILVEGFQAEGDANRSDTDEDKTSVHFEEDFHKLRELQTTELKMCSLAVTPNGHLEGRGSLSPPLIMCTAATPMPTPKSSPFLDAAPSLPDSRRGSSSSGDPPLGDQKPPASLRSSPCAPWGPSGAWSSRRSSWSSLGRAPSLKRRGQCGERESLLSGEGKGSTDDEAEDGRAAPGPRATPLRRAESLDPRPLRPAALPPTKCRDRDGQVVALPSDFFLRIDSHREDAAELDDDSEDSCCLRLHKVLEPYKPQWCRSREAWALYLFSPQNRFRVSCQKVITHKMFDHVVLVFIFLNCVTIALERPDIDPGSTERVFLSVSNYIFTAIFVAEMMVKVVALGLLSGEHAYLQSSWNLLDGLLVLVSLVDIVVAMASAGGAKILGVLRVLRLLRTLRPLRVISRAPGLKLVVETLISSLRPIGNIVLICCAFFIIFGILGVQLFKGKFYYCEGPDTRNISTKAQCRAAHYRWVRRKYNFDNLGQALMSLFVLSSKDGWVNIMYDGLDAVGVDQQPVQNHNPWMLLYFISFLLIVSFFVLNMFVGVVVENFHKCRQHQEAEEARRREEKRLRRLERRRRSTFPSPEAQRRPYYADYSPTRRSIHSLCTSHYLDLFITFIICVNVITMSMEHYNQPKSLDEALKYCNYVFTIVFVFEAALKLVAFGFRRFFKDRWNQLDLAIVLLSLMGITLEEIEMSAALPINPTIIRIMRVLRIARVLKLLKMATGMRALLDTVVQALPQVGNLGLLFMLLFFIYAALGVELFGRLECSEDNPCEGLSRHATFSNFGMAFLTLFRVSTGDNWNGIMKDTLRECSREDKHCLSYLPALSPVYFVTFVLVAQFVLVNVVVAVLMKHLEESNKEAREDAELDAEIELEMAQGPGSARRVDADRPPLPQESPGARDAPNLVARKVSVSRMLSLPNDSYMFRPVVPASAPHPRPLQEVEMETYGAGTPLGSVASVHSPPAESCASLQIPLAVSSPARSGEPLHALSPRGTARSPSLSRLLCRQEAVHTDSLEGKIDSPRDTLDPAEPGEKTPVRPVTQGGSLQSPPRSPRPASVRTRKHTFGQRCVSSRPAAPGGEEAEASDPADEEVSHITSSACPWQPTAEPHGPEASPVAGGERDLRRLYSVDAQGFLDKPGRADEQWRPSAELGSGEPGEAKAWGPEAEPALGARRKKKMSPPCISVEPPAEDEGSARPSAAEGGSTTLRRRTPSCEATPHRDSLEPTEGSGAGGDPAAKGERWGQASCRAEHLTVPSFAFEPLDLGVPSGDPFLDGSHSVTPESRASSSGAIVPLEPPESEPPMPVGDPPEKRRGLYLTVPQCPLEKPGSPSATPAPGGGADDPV
Protocol Notes: Electrophysiological evaluation, whole-cell patch-clamp with automatic patch-clamp system
Type: cell-based
Stated Conditions: 0.3 μM, holding potential −80 mV; read-out: Cav3.2 channel current inhibition ratio at 0.3 μM of test compound (holding potential −80 mV)
Form entry: value (%) — number only.

> print(dat)
                                   molecule  readout.value
1  C[C@@H](NC(=O)C1CC1c1ccc2cnn(C)c2c1)c1ccc(OCC(F)(F)F)s1 (single isomer, unassigned) [Example 22A]             81
2  C[C@@H](NC(=O)[C@H]1C[C@@H]1c1nc2ccccc2[nH]1)c1nc2cc(F)ccc2o1             58
3  C[C@@H](NC(=O)[C@H]1C[C@@H]1c1nc2ccccc2[nH]1)c1cc2cc(Cl)ccc2o1             88

Given the entry C[C@@H](NC(=O)C1CC1c1nc(-c2ccccn2)c[nH]1)c1ccc(OCC(F)(F)F)s1 (mixture of isomers) , what inhibition at 0.3 µM was observed with human Cav3.2 channels (Homo sapiens, UniProt O95180)? 50

Kindly state the measured inhibition at 0.3 µM obtained for C[C@@H](NC(=O)[C@H]1C[C@@H]1c1nc2ccccc2[nH]1)c1ccc2c(c1)CCO2 with human Cav3.2 channels (Homo sapiens, UniProt O95180). 49

Could you share what inhibition at 0.3 µM was measured for C[C@@H](NC(=O)[C@H]1C[C@@H]1c1nc2ccccc2[nH]1)c1ccc(C(=O)N(C)c2ccc(F)cc2)s1 , tested on human Cav3.2 channels (Homo sapiens, UniProt O95180)? 34

Can you look up inhibition at 0.3 µM on human Cav3.2 channels (Homo sapiens, UniProt O95180) for C[C@@H](NC(=O)C1CC1c1nc2ccccc2[nH]1)c1ccc(C(F)(F)F)s1 (single isomer, unassigned) ? 59

What value of inhibition at 0.3 µM on human Cav3.2 channels (Homo sapiens, UniProt O95180) does C[C@@H](NC(=O)[C@H]1C[C@@H]1c1nc2ccccc2[nH]1)c1ccc(C(=O)OC(C)(C)C)s1 [Example 25A] have? 59
